Tested on: LXRb homodimer (NR concentration 270 nM)
RUN DESCRIPTION: PBM binding z-score (relative to random genomic background probes); higher = stronger binding; sequences stand for … in GC…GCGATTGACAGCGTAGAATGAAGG

>  <SEQUENCE INPUT>
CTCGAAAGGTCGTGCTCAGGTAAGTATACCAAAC

>  <PBM binding z-score>
0.134

$$$$
>  <SEQUENCE INPUT>
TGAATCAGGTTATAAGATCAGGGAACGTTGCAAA

>  <PBM binding z-score>
-0.425

$$$$
>  <SEQUENCE INPUT>
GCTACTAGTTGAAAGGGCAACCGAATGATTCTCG

>  <PBM binding z-score>
-0.373

$$$$
>  <SEQUENCE INPUT>
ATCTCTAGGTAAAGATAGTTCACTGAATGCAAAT

>  <PBM binding z-score>
0.641

$$$$
>  <SEQUENCE INPUT>
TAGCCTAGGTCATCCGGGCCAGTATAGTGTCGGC

>  <PBM binding z-score>
0.281

$$$$
>  <SEQUENCE INPUT>
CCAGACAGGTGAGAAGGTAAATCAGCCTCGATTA

>  <PBM binding z-score>
-0.154

$$$$
>  <SEQUENCE INPUT>
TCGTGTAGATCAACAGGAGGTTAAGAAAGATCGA

>  <PBM binding z-score>
-0.51

$$$$
>  <SEQUENCE INPUT>
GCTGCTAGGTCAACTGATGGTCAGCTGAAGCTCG

>  <PBM binding z-score>
-0.22

$$$$
